# maps each entry to its GI50
# Tested on: HT-29
# Assay Summary: Antiproliferative activity against human HT-29 cells assessed as cell growth inhibition incubated for 72 hrs by MTT assay
# Assay type: functional
Response body: numeric value in µM, unit text excluded.

[
  {
    "Compound": "O=C1NC(c2cccs2)Nc2ccccc21 (stereo not given)",
    "Test System": "HT-29",
    "GI50, µM": 7.6
  }
]

HT-29 data for Cc1ccc(/C=C/c2nc(O)c3ccccc3n2)cc1 ; its GI50: 2.1

HT-29 data for CC(C)(C)c1ccc(C2NC(=O)c3ccccc3N2)cc1 (stereo not given) ; its GI50: 9.7

HT-29 data for O=C1NC(c2cccc3ccccc23)Nc2ccccc21 (stereo not given) ; its GI50: 0.02

HT-29 data for O=C1NC(c2ccc3ccccc3c2)Nc2ccccc21 (stereo not given) ; its GI50: 2.7

HT-29 data for O=c1[nH]c(/C=C/c2ccccc2)nc2ccccc12 ; its GI50: 0.4

HT-29 data for O=c1[nH]c(/C=C/c2ccc(O)cc2)nc2ccccc12 ; its GI50: 0.35

HT-29 data for O=C1NC(c2ccc(-c3ccccc3)cc2)Nc2ccccc21 (stereo not given) ; its GI50: 2.3

HT-29 data for O=C1NC(/C(Br)=C/c2ccccc2)Nc2ccccc21 (stereo not given) ; its GI50: 2.6

HT-29 data for CCCCCCCCC1NC(=O)c2ccccc2N1 (stereo not given) ; its GI50: 13

====

# Test system: BE(2)-C
# Assay Summary: Antiproliferative activity against human BE2C cells assessed as cell growth inhibition at 25 uM incubated for 72 hrs by MTT assay relative to control
# Format: functional
Quantity: inhibition at 25 µM (%)
Response body: numeric value in %, unit text excluded.

Examples with answers:
[
  {
    "Molecule": "O=C1NC(c2ccc(O)cc2)Nc2ccccc21 (configuration not stated)",
    "inhibition at 25 µM, %": 100
  },
  {
    "Molecule": "O=C1NC(/C(Br)=C/c2ccccc2)Nc2ccccc21 (configuration not stated)",
    "inhibition at 25 µM, %": 87
  },
  {
    "Molecule": "O=C1NC(c2cccc(O)c2)Nc2ccccc21 (configuration not stated)",
    "inhibition at 25 µM, %": 97
  },
  {
    "Molecule": "COC(=O)c1cccc(/C=C/c2nc3ccccc3c(=O)[nH]2)c1",
    "inhibition at 25 µM, %": 47
  }
]

Next molecule, please.
The molecule O=c1[nH]c(/C=C/c2ccc(Br)cc2)nc2ccccc12 showed inhibition at 25 µM equal to 78

====

# Assay Summary: Antiproliferative activity against human SJG2 cells assessed as cell growth inhibition at 25 uM incubated for 72 hrs by MTT assay relative to control
# Format: functional
# Condition Notes: SJ-G2
Quantity: inhibition at 25 µM (%)
Response body: numeric value in %, unit text excluded.

Examples with answers:
[
  {
    "Compound": "O=c1[nH]c(-c2ccc(Br)cc2)nc2ccccc12",
    "Measured": 66
  },
  {
    "Compound": "N#Cc1ccc(C2NC(=O)c3ccccc3N2)cc1 (stereo not given)",
    "Measured": 14
  },
  {
    "Compound": "O=C1NC(/C=C/c2ccco2)Nc2ccccc21 (stereo not given)",
    "Measured": 100
  }
]

Next compound, please.
The compound O=C1NC(c2ccc(Br)o2)Nc2ccccc21 (stereo not given) showed inhibition at 25 µM equal to 12

====

# Test system: U-87 MG
# Assay Summary: Antiproliferative activity against human U87 cells assessed as cell growth inhibition incubated for 72 hrs by MTT assay
# Format: functional, U-87MG ATCC
# maps each entry to its GI50

[
  {
    "Compound": "O=C1NC(c2cccc(O)c2)Nc2ccccc21 (stereo not drawn)",
    "Test System": "U-87 MG",
    "GI50": "19 µM"
  },
  {
    "Compound": "O=C1NC(c2ccc([N+](=O)[O-])cc2)Nc2ccccc21 (stereo not drawn)",
    "Test System": "U-87 MG",
    "GI50": "> 50 µM"
  },
  {
    "Compound": "O=C1NC(c2ccccc2Br)Nc2ccccc21 (stereo not drawn)",
    "Test System": "U-87 MG",
    "GI50": "10 µM"
  },
  {
    "Compound": "COC(=O)c1cccc(/C=C/c2nc3ccccc3c(=O)[nH]2)c1",
    "Test System": "U-87 MG",
    "GI50": "32 µM"
  },
  {
    "Compound": "COc1cccc(C2NC(=O)c3ccccc3N2)c1 (stereo not drawn)",
    "Test System": "U-87 MG",
    "GI50": "2.7 µM"
  }
]

The compound Cc1ccc(/C=C/c2nc(O)c3ccccc3n2)cc1 showed GI50 equal to 19 µM

The compound O=c1[nH]c(/C=C/c2ccc(O)cc2)nc2ccccc12 showed GI50 equal to 0.48 µM

The compound O=C1NC(/C=C/c2ccco2)Nc2ccccc21 (stereo not drawn) showed GI50 equal to 4.3 µM

The compound O=C1NC(c2cccc(Br)c2)Nc2ccccc21 (stereo not drawn) showed GI50 equal to 4.1 µM

The compound O=C1NC(c2ccc3ccccc3c2)Nc2ccccc21 (stereo not drawn) showed GI50 equal to 5 µM

The compound O=C1NC(c2ccc(Br)cc2)Nc2ccccc21 (stereo not drawn) showed GI50 equal to 4.7 µM

The compound O=C1NC(c2cccc(C(F)(F)F)c2)Nc2ccccc21 (stereo not drawn) showed GI50 equal to 3.2 µM

The compound O=C1NC(CCc2ccccc2)Nc2ccccc21 (stereo not drawn) showed GI50 equal to 19 µM

The compound O=C1NC(c2ccc(O)cc2)Nc2ccccc21 (stereo not drawn) showed GI50 equal to 16 µM

The compound COc1ccc(/C=C/c2nc3ccccc3c(=O)[nH]2)cc1 showed GI50 equal to > 50 µM

The compound COc1cccc(/C=C/c2nc3ccccc3c(=O)[nH]2)c1 showed GI50 equal to 10 µM

The compound COc1ccccc1/C=C/c1nc2ccccc2c(=O)[nH]1 showed GI50 equal to 1.4 µM

The compound CC(C)(C)c1ccc(C2NC(=O)c3ccccc3N2)cc1 (stereo not drawn) showed GI50 equal to > 50 µM

The compound O=c1[nH]c(-c2ccc(Br)cc2)nc2ccccc12 showed GI50 equal to 10 µM

The compound N#Cc1ccc2[nH]cc(-c3nc4ccccc4c(=O)[nH]3)c2c1 showed GI50 equal to 3.2 µM

The compound O=c1[nH]c(/C=C/c2cccc(O)c2)nc2ccccc12 showed GI50 equal to 8.9 µM

The compound O=c1[nH]c(/C=C/c2ccc(Br)cc2)nc2ccccc12 showed GI50 equal to 13 µM

The compound O=C1NC(c2cc3ccccc3o2)Nc2ccccc21 (stereo not drawn) showed GI50 equal to 4.1 µM

The compound O=c1[nH]c(/C=C/c2ccccc2)nc2ccccc12 showed GI50 equal to 2.7 µM

====

# Assay Summary: Cytotoxicity against human MCF-10A cells assessed as cell growth inhibition at 25 uM incubated for 72 hrs by MTT assay relative to control
# Type: toxicity, cell-based
Binary classification by inhibition at 72 h, 25 µM, with 50% as an inclusive lower bound for Condition met; all other cases are Condition not met.

[
  {
    "Molecule": "O=C1NC(c2cccc(Br)c2)Nc2ccccc21 (configuration not stated)",
    "Class Label": "Condition met"
  },
  {
    "Molecule": "O=C1NC(C2CCCC2)Nc2ccccc21 (configuration not stated)",
    "Class Label": "Condition not met"
  },
  {
    "Molecule": "O=C1NC(/C=C/c2ccccc2[N+](=O)[O-])Nc2ccccc21 (configuration not stated)",
    "Class Label": "Condition not met"
  }
]

Q. // inclusive: inhibition at 72 h, 25 µM at least 50%? input: O=C1NC(c2ccc(-c3ccccc3)cc2)Nc2ccccc21 (configuration not stated)
A. Condition met

Q. // inclusive: inhibition at 72 h, 25 µM at least 50%? input: O=c1[nH]c(/C=C/c2ccc(O)cc2)nc2ccccc12
A. Condition met

====

# maps each entry to its inhibition at 25 µM
# System: U-87 MG
# Assay Summary: Antiproliferative activity against human U87 cells assessed as cell growth inhibition at 25 uM incubated for 72 hrs by MTT assay relative to control
# Format: functional, U-87MG ATCC
Response body: numeric value in %, unit text excluded.

Examples with answers:
[
  {
    "Compound": "N#Cc1cccc(C2NC(=O)c3ccccc3N2)c1 (configuration not stated)",
    "Measured": 19
  },
  {
    "Compound": "O=C1NC(c2ccc3ccccc3c2)Nc2ccccc21 (configuration not stated)",
    "Measured": 94
  },
  {
    "Compound": "O=C1NC(c2ccc(Br)cc2)Nc2ccccc21 (configuration not stated)",
    "Measured": 88
  }
]

The compound COc1cccc(/C=C/c2nc3ccccc3c(=O)[nH]2)c1 showed inhibition at 25 µM equal to 75
